Exercise: state measured IC50 for each of the molecules provided.
- System: MM.1S cells
- method-summary: Inhibitory effect on the proliferation of MM.1S, MTS cell viability test
- Assay type: cell-based
- experimental-context: Homo sapiens, MM1.S, 168 h, multiple myeloma MM.1S cells, 7 days incubation, read-out: Tumor cell inhibitory activity

query: Entry O=C1CCC(N2Cc3c(CCCCCN4CCN(c5ccnc6ccccc56)CC4)cccc3C2=O)C(=O)N1 (stereo not drawn) , system MM.1S cells: what IC50 was measured?
result: < 0.1 µM

query: What would you report for O=C1CCC(N2Cc3c(OCCCCN4CCC5(CC4)OCc4ccc(F)cc45)cccc3C2=O)C(=O)N1 (stereo not drawn) ?
result: < 0.1 µM

query: What would you report for C[C@]1(N2Cc3c(OCCCN4CCN(c5cccc(Cl)c5Cl)CC4)cccc3C2=O)CCC(=O)NC1=O ?
result: 1 to 20 µM

query: What would you report for N#CC1(c2ccccc2)CCN(CCCOc2cccc3c2CN(C2CCC(=O)NC2=O)C3=O)CC1 (stereo not drawn) ?
result: < 0.1 µM

query: What would you report for O=C1CCC(N2Cc3c(CCCCCCN4CCC5(CC4)OCc4ccc(Cl)cc45)cccc3C2=O)C(=O)N1 (stereo not drawn) ?
result: < 0.1 µM

query: What would you report for N#CC1(c2ccc(O[C@H]3CCOC3)cc2)CCN(CCCCCc2cccc3c2CN(C2CCC(=O)NC2=O)C3=O)CC1 (stereo partly drawn) ?
result: 0.1 to 1 µM

query: What would you report for N#Cc1ccc(C2(C#N)CCN(CCCCCc3cccc4c3CN(C3CCC(=O)NC3=O)C4=O)CC2)cc1 (stereo not drawn) ?
result: 0.1 to 1 µM

query: What would you report for Cc1ccc2c(c1)C1(CCN(CCCCOc3cccc4c3CN(C3CCC(=O)NC3=O)C4=O)CC1)OC2 (stereo not drawn) ?
result: < 0.1 µM

query: What would you report for O=C1CCC(N2Cc3c(CCCCCN4CCN(c5cccc(Cl)c5Cl)CC4)cccc3C2=O)C(=O)N1 (stereo not drawn) ?
result: < 0.1 µM

query: What would you report for O=C1CCC(N2Cc3c(CCCCCN4CCC5(CC4)C(=O)Nc4ccc(Cl)cc45)cccc3C2=O)C(=O)N1 (stereo not drawn) ?
result: < 0.1 µM

query: What would you report for O=C1CCC(N2Cc3c(CCCCCOc4ccnc5ccsc45)cccc3C2=O)C(=O)N1 (stereo not drawn) ?
result: < 0.1 µM

query: What would you report for N[C@@H](CCCc1cccc2c1CN(C1CCC(=O)NC1=O)C2=O)C(=O)NC12CC3CC(CC(C3)C1)C2 (stereo partly drawn) ?
result: > 20 µM

---

Exercise: state measured pIC50 for each of the compounds provided.
- Test system: MM.1S cells
- method-summary: Inhibitory effect on the proliferation of MM.1S, MTS cell viability test
- Format: cell-based
- experimental-context: Homo sapiens, MM1.S, 168 h, multiple myeloma MM.1S cells, 7 days incubation, read-out: Tumor cell inhibitory activity
pIC50: −log10 of the molar value.

query: Fill in: pIC50 of O=C1CCC(N2Cc3c(CCCCCN4CCc5ccccc54)cccc3C2=O)C(=O)N1 (stereo not drawn) [Example 107] is ___
result: > 7.00

query: What would you report for O=C1CCC(N2Cc3c(CCCCCN4CCC5(CC4)OC(=O)c4cc(Cl)ccc45)cccc3C2=O)C(=O)N1 (stereo not drawn) [Example 129] ?
result: 6.00 to 7.00

query: What would you report for O=C1CCC(N2Cc3c(CCCCCN4CCCCc5ccccc54)cccc3C2=O)C(=O)N1 (stereo not drawn) [Example 111] ?
result: 6.00 to 7.00

query: What would you report for N#CC1(c2cc(Cl)ccc2Cl)CCN(CCCCCc2cccc3c2CN(C2CCC(=O)NC2=O)C3=O)CC1 (stereo not drawn) [Example 248] ?
result: 4.70 to 6.00

query: What would you report for COc1ccccc1N1CCN(CCCCc2cccc3c2CN(C2CCC(=O)NC2=O)C3=O)CC1 (stereo not drawn) [Example 224] ?
result: > 7.00

query: What would you report for O=C1CCC(N2Cc3c(CCCCOc4ccnc5ccccc45)cccc3C2=O)C(=O)N1 (stereo not drawn) [Example 15] ?
result: > 7.00

query: What would you report for O=C1CCC(N2Cc3c(OCCCCN4CCC5(CC4)OCc4ccccc45)cccc3C2=O)C(=O)N1 (stereo not drawn) [Example 126] ?
result: > 7.00

query: What would you report for Cc1nc2cccc(N)c2c(=O)n1C1CCC(=O)NC1=O (stereo not drawn) [CC-122, reference compound] ?
result: > 7.00

query: What would you report for O=C1CCC(N2Cc3c(CCCCCN4CCN(c5noc6ccccc56)CC4)cccc3C2=O)C(=O)N1 (stereo not drawn) [Example 231] ?
result: 4.70 to 6.00

query: What would you report for O=C1CCC(N2Cc3c(OCCCCN4CCN(c5ccc(Cl)c(Cl)c5)CC4)cccc3C2=O)C(=O)N1 (stereo not drawn) [Example 243] ?
result: 6.00 to 7.00

query: What would you report for N#CC1(c2ccc(F)cc2Cl)CCN(CCCOc2cccc3c2CN(C2CCC(=O)NC2=O)C3=O)CC1 (stereo not drawn) [Example 74] ?
result: > 7.00

query: What would you report for CC(=O)N[C@@H](CCCc1cccc2c1CN(C1CCC(=O)NC1=O)C2=O)C(=O)NCc1ccc(N2CCCC2)cc1 (stereo partly drawn) [Example 186] ?
result: 6.00 to 7.00

query: What would you report for COc1ccc(C2(C#N)CCN(CCCCCc3cccc4c3CN(C3CCC(=O)NC3=O)C4=O)CC2)cc1 (stereo not drawn) [Example 265] ?
result: 4.70 to 6.00

query: What would you report for Cc1ccc(NC(=O)[C@H](CCCc2cccc3c2CN(C2CCC(=O)NC2=O)C3=O)NC(=O)C2CC2)cc1Cl (stereo partly drawn) [Example 185] ?
result: > 7.00

query: What would you report for O=C1CCC(N2Cc3c(OCCCN4CCC5(CC4)OCc4ccc(F)cc45)cccc3C2=O)C(=O)N1 (stereo not drawn) [Example 142] ?
result: 6.00 to 7.00

query: What would you report for O=C1CCC(N2Cc3c(CCCCCN4CCC5(CC4)OC(=O)Nc4ccc(Cl)cc45)cccc3C2=O)C(=O)N1 (stereo not drawn) [Example 277] ?
result: 6.00 to 7.00

query: What would you report for O=C1CCC(N2Cc3c(CCCCCN4CCOCC4)cccc3C2=O)C(=O)N1 (stereo not drawn) [Example 16] ?
result: 6.00 to 7.00

query: What would you report for N#CC1(c2c(Cl)cccc2Cl)CCN(CCCOc2cccc3c2CN(C2CCC(=O)NC2=O)C3=O)CC1 (stereo not drawn) [Example 76] ?
result: > 7.00

query: What would you report for CC(=O)N[C@@H](CCCc1cccc2c1CN(C1CCC(=O)NC1=O)C2=O)C(=O)N[C@@H]1CCc2ccccc21 (stereo partly drawn) [Example 177] ?
result: 6.00 to 7.00

query: What would you report for N#CC1(c2ccc(Cl)cc2)CCN(CCCOc2cccc3c2CN(C2CCC(=O)NC2=O)C3=O)CC1 (stereo not drawn) [Example 59] ?
result: > 7.00

query: What would you report for O=C1CCC(N2Cc3c(CCCCN4CCN(c5ccc(Cl)cc5)CC4)cccc3C2=O)C(=O)N1 (stereo not drawn) [Example 41] ?
result: > 7.00

query: What would you report for N#CC1(c2ccc(Cl)cc2)CCN(CCCCCCc2cccc3c2CN(C2CCC(=O)NC2=O)C3=O)CC1 (stereo not drawn) [Example 102] ?
result: > 7.00

query: What would you report for N#CC1(c2c(F)cccc2Cl)CCN(CCCOc2cccc3c2CN(C2CCC(=O)NC2=O)C3=O)CC1 (stereo not drawn) [Example 68] ?
result: > 7.00

query: What would you report for O=C1CCC(N2Cc3c(CCCCN4CCN(c5c(Cl)cccc5Cl)CC4)cccc3C2=O)C(=O)N1 (stereo not drawn) [Example 48] ?
result: > 7.00

query: What would you report for N[C@@H](CCCc1cccc2c1CN(C1CCC(=O)NC1=O)C2=O)C(=O)Nc1ccccc1-c1ccccn1 (stereo partly drawn) [Example 170] ?
result: < 4.70

query: What would you report for O=C1CCC(N2Cc3c(CCCCN4CCN(c5ccc(F)cc5)CC4)cccc3C2=O)C(=O)N1 (stereo not drawn) [Example 39] ?
result: > 7.00

query: What would you report for CC(=O)N[C@@H](CCCc1cccc2c1CN(C1CCC(=O)NC1=O)C2=O)C(=O)NCc1ccc(F)cc1F (stereo partly drawn) [Example 178] ?
result: 6.00 to 7.00

query: What would you report for N[C@@H](CCCc1cccc2c1CN(C1CCC(=O)NC1=O)C2=O)c1nc2cccc(Br)c2[nH]1 (stereo in doubt) [Example 195] ?
result: 6.00 to 7.00

query: What would you report for Cc1ccc(NC(=O)[C@H](CCCc2cccc3c2CN(C2CCC(=O)NC2=O)C3=O)NC(=O)C2CCNCC2)cc1Cl (stereo partly drawn) [Example 191] ?
result: 6.00 to 7.00

query: What would you report for N#CC1(c2cccc(OC(F)(F)F)c2)CCN(CCCCCc2cccc3c2CN(C2CCC(=O)NC2=O)C3=O)CC1 (stereo not drawn) [Example 94] ?
result: > 7.00
